- MEASUREMENT DESCRIPTION: Inhibitory activity against Protein kinase C beta isoform (PKC) from pig spleen.
The following compounds are listed with their measured pIC50 values.
# pIC50: negative log10 of molar concentration; output just the value

Examples from the recorded data:
IN: Which pIC50 value belongs to `C[C@H](NC(=O)C[C@H](NC(=O)C[C@H](NC(=O)[C@H]1O[C@@H](n2cnc3c(N)ncnc32)[C@H](O)[C@@H]1O)C(=O)O)C(=O)O)C(=O)N[C@@H](CCCNC(=N)N)C(=O)N[C@@H](CCCNC(=N)N)C(=O)N[C@@H](CCCNC(=N)N)C(=O)N[C@@H](CCCNC(=N)N)C(=O)N[C@@H](CCCNC(=N)N)C(=O)N[C@@H](CCCNC(=N)N)C(=O)O` ?
OUT: 4.57

IN: Which pIC50 value belongs to N=C(N)NCCC[C@H](NC(=O)[C@H](CCCNC(=N)N)NC(=O)[C@H](CCCNC(=N)N)NC(=O)[C@H](CCCNC(=N)N)NC(=O)[C@H](CCCNC(=N)N)NC(=O)[C@H](CCCNC(=N)N)NC(=O)CNC(=O)[C@H]1OC(n2cnc3c(N)ncnc32)[C@H](O)[C@@H]1O)C(=O)O (some centres undefined) ?
OUT: 5.00

Continuing:
IN: Which pIC50 value belongs to N=C(N)NCCC[C@H](NC(=O)[C@H](CCCNC(=N)N)NC(=O)[C@H](CCCNC(=N)N)NC(=O)[C@H](CCCNC(=N)N)NC(=O)[C@H](CCCNC(=N)N)NC(=O)[C@H](CCCNC(=N)N)NC(=O)CCNC(=O)[C@H]1OC(n2cnc3c(N)ncnc32)[C@H](O)[C@@H]1O)C(=O)O (some centres undefined) ?
OUT: 5.52

Origin of the recorded values: BindingDB's records for doi:10.1016/s0960-894x(99)00210-3
